experiment: Reactivity (% depletion) of nucleophilic reagent Compound 1 with test substance, HPLC; skin sensitization prediction; conditions: FIG. 3, FIG. 4
readout type: reactivity of Compound 1 in comparison with NAC-amide

Look over these answered cases.
Which value of reactivity of Compound 1 in comparison with NAC-amide has been reported for CCCCCCI in the records?
same level of reactivity

Which value of reactivity of Compound 1 in comparison with NAC-amide has been reported for COc1ccc(C(C)=O)cc1 in the records?
same level of reactivity

Which value of reactivity of Compound 1 in comparison with NAC-amide has been reported for CC(C=O)Cc1ccc(C(C)C)cc1 (stereo not shown) in the records?
higher reactivity

Which value of reactivity of Compound 1 in comparison with NAC-amide has been reported for CCCCCCCCC(=O)Cl [Nonanoyl chloride] in the records?
same level of reactivity

Which value of reactivity of Compound 1 in comparison with NAC-amide has been reported for CCCCBr in the records?
same level of reactivity

Next:
Which value of reactivity of Compound 1 in comparison with NAC-amide has been reported for O=c1c(-c2ccccc2)c1-c1ccccc1 in the records?
same level of reactivity

Which value of reactivity of Compound 1 in comparison with NAC-amide has been reported for O=C(O)c1ccc2c(c1)C(=O)OC2=O [Trimellitic anhydride] in the records?
higher reactivity

====

assay: Reactivity (% depletion) of nucleophilic reagent Compound 1 with test substance, HPLC; skin sensitization prediction; settings: FIG. 3, FIG. 4
readout type: reactivity of Compound 1 in comparison with NAC and NAL in ADRA

Look over these answered cases.
Which value of reactivity of Compound 1 in comparison with NAC and NAL in ADRA has been reported for CCCCCC(C=O)=Cc1ccccc1 in the records?
higher reactivity

Which value of reactivity of Compound 1 in comparison with NAC and NAL in ADRA has been reported for O=c1c(-c2ccccc2)c1-c1ccccc1 in the records?
higher reactivity

Which value of reactivity of Compound 1 in comparison with NAC and NAL in ADRA has been reported for O=C(Oc1ccccc1)c1ccccc1 [Phenyl benzoate] in the records?
higher reactivity

Which value of reactivity of Compound 1 in comparison with NAC and NAL in ADRA has been reported for COc1ccc(C(C)=O)cc1 in the records?
same level of reactivity

Which value of reactivity of Compound 1 in comparison with NAC and NAL in ADRA has been reported for CCCCCCCCC(=O)Cl [Nonanoyl chloride] in the records?
higher reactivity

Next:
Which value of reactivity of Compound 1 in comparison with NAC and NAL in ADRA has been reported for O=c1cccccc1O in the records?
higher reactivity

Which value of reactivity of Compound 1 in comparison with NAC and NAL in ADRA has been reported for CCOC(=O)CC(=O)c1ccccc1 [Ethyl benzoylacetate] in the records?
same level of reactivity

====

experiment: Reactivity (% depletion) of nucleophilic reagent Compound 1 with test substance, HPLC; skin sensitization prediction; conditions: FIG. 3, FIG. 4
readout type: reactivity of Compound 1 in comparison with GSH-NBD

Which value of reactivity of Compound 1 in comparison with GSH-NBD has been reported for CCCCCC(C=O)=Cc1ccccc1 [α-Pentyl cinnamaldehyde] in the records?
higher reactivity

Which value of reactivity of Compound 1 in comparison with GSH-NBD has been reported for CC(C=O)Cc1ccc(C(C)C)cc1 (centres unmarked) [Cyclamen aldehyde] in the records?
higher reactivity

Which value of reactivity of Compound 1 in comparison with GSH-NBD has been reported for COC(=O)C(C)=O [Methyl pyruvate] in the records?
higher reactivity

====

assay: Reactivity (% depletion) of nucleophilic reagent Compound 1 with test substance, HPLC; skin sensitization prediction; conditions: FIG. 3, FIG. 4
readout type: reactivity of Compound 1 in comparison with NAC-amide

Look over these answered cases.
Which value of reactivity of Compound 1 in comparison with NAC-amide has been reported for COC(=O)C(C)=O [Methyl pyruvate] in the records?
higher reactivity

Which value of reactivity of Compound 1 in comparison with NAC-amide has been reported for O=c1cccccc1O in the records?
same level of reactivity

Which value of reactivity of Compound 1 in comparison with NAC-amide has been reported for O=C(Oc1ccccc1)c1ccccc1 [Phenyl benzoate] in the records?
same level of reactivity

Which value of reactivity of Compound 1 in comparison with NAC-amide has been reported for CCCCCC(C=O)=Cc1ccccc1 in the records?
higher reactivity

Which value of reactivity of Compound 1 in comparison with NAC-amide has been reported for CCOC(=O)CC(=O)c1ccccc1 [Ethyl benzoylacetate] in the records?
same level of reactivity

Query compound follows.
Which value of reactivity of Compound 1 in comparison with NAC-amide has been reported for CCC=C1OC(=O)c2ccccc21 [3-Propylidene phthalide] in the records?
same level of reactivity

====

assay: Reactivity (% depletion) of nucleophilic reagent Compound 1 with test substance, HPLC; skin sensitization prediction; conditions: FIG. 3, FIG. 4
readout type: reactivity of Compound 1 in comparison with NAC and NAL in ADRA

Look over these answered cases.
Which value of reactivity of Compound 1 in comparison with NAC and NAL in ADRA has been reported for CCCCBr [1-Bromobutane] in the records?
same level of reactivity

Which value of reactivity of Compound 1 in comparison with NAC and NAL in ADRA has been reported for COC(=O)C(C)=O [Methyl pyruvate] in the records?
higher reactivity

Which value of reactivity of Compound 1 in comparison with NAC and NAL in ADRA has been reported for CC(C=O)Cc1ccc(C(C)C)cc1 (stereo not drawn) [Cyclamen aldehyde] in the records?
higher reactivity

Which value of reactivity of Compound 1 in comparison with NAC and NAL in ADRA has been reported for CCCCCCI [Compound 1-Iodohexane, 1-Iodohexane] in the records?
same level of reactivity

Query molecule follows.
Which value of reactivity of Compound 1 in comparison with NAC and NAL in ADRA has been reported for CCC=C1OC(=O)c2ccccc21 [3-Propylidene phthalide] in the records?
same level of reactivity
